# study target: T1, rat NK1 receptor (rat, UniProt P14600)
# T1 chain: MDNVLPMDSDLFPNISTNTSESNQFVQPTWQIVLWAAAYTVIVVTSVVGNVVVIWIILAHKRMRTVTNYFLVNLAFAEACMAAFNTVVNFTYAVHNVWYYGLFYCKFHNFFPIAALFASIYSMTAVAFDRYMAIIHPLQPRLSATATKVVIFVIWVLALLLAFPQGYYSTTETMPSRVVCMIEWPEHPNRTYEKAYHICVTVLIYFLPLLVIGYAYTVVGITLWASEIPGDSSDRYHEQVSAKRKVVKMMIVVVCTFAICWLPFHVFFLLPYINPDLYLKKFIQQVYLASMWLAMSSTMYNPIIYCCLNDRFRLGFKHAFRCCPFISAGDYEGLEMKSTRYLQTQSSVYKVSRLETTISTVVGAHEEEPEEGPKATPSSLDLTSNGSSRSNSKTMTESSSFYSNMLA
# assay: competition
Non-standard residues stand in square brackets, D forms with d. No end group written: not given here. *: point of attachment. NMePhe(4-F) = CN[C@@H](Cc1ccc(F)cc1)C(=O)O; NHBn = c1ccc(CN*)cc1
measured attribute: pKi
Scale note: pKi = -log10(concentration in M).

binder="Y[dA]GFQPLW (not fully specified (C-terminus)) [AKG105]" measured_value=7.90

# lookup: pKi of Y[dA]GF[dN]PLW-NHBn [AKG102]
6.88

# lookup: pKi of Y[dA]GFNPLW (not fully specified (C-terminus)) [AKG104]
7.69

# lookup: pKi of Y[dA]G[NMePhe(4-F)]QPLW-NHBn [AKG143]
7.66

# lookup: pKi of Y[dA]GF[dQ]PLW (not fully specified (C-terminus)) [AKG103]
6.97

All values here come from patent US11141452.
